Cited source for all entries: ChEMBL document CHEMBL1938272

// inhibition lookup, one value per entry
Tested on: HEK293
protocol-text: Inhibition of TNFalpha-activated NF-kappaB expressed in HEK293 cells at 50 uM by luciferase reporter gene assay
Type: cell-based
Express your answer in %, writing the number without its unit.

Please review the entries below; each comes with its answer.
Fc1ccc(-c2nsc(-c3ccc(F)cc3)n2)cc1; 0
Brc1cccc(-c2nsc(-c3cccc(Br)c3)n2)c1; 0
Ic1ccc(-c2nsc(-c3ccc(I)cc3)n2)cc1; 0
Cc1ccc(Cl)cc1-c1nsc(-c2cc(Cl)ccc2C)n1; 29.7

Inquiry: Would you kindly share the measured inhibition for Brc1ccccc1-c1nsc(-c2ccccc2Br)n1 ?
Reply text: 0

Inquiry: Would you kindly share the measured inhibition for c1cncc(-c2nsc(-c3cccnc3)n2)c1 ?
Reply text: 30.9

Inquiry: Would you kindly share the measured inhibition for CC(C)(C)c1ccc(-c2nsc(-c3ccc(C(C)(C)C)cc3)n2)cc1 ?
Reply text: 0

###

experimental-target: NAD(P)H dehydrogenase [quinone] 1 (Mus musculus) (UniProt Q64669)
Sequence (Q64669 whole entry): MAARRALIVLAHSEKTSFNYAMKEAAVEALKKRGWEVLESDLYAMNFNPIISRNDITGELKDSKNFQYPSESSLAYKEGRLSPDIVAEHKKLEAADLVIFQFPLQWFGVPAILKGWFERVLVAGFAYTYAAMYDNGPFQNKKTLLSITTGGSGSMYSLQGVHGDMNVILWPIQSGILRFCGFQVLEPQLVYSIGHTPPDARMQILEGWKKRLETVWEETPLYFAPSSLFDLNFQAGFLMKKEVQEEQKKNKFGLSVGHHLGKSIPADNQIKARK
protocol-text: Induction of QR1 activity in mouse Hepa-1c1c7 cells using MTT as substrate by spectrophotometry
Format: cell-based
The threshold is inclusive: CD of exactly 3 µM counts as y; values below receive n.

Below are worked cases with known answers.
Cc1c(Cl)cccc1-c1nsc(-c2cccc(Cl)c2C)n1; y
Clc1cccc(-c2nsc(-c3cccc(Cl)c3Cl)n2)c1Cl; n
Cc1ccc(Cl)cc1-c1nsc(-c2cc(Cl)ccc2C)n1; n
Cc1cc(Cl)ccc1-c1nsc(-c2ccc(Cl)cc2C)n1; n
Brc1cccc(-c2nsc(-c3cccc(Br)c3)n2)c1; n

Inquiry: Has COc1cccc(-c2nsc(-c3cccc(OC)c3)n2)c1 a recorded CD greater than or equal to 3 µM?
Reply text: y

Inquiry: Has Cc1cccc(-c2nsc(-c3cccc(C)c3)n2)c1 a recorded CD greater than or equal to 3 µM?
Reply text: y

Inquiry: Has Ic1cccc(-c2nsc(-c3cccc(I)c3)n2)c1 a recorded CD greater than or equal to 3 µM?
Reply text: y

###

// inhibition lookup, one value per entry
System: Radical scavenging activity
protocol-text: Antioxidant activity assessed as DPPH free radical scavenging activity at 400 uM after 30 mins by spectrophotometry
Type: functional
Express your answer in %, writing the number without its unit.

Oc1ccc(CCc2cc(O)cc(O)c2)cc1 [DIHYDRORESVERATROL]; 14.7
N#Cc1cccc(-c2nsc(-c3cccc(C#N)c3)n2)c1; 1.4
Brc1ccccc1-c1nsc(-c2ccccc2Br)n1; 1.8
Fc1ccc(-c2nsc(-c3ccc(F)cc3)n2)cc1; 6.9
Cc1cc(Br)ccc1-c1nsc(-c2ccc(Br)cc2C)n1; 2.2
Oc1ccc(-c2nsc(-c3ccc(O)cc3)n2)cc1; 3.4
FC(F)(F)c1ccc(-c2nsc(-c3ccc(C(F)(F)F)cc3)n2)cc1; 2.5
FC(F)(F)c1ccccc1-c1nsc(-c2ccccc2C(F)(F)F)n1; 2.9
Cc1ccc(-c2nsc(-c3ccc(C)cc3Br)n2)c(Br)c1; 3.4
c1cc(-c2nsc(-c3ccncc3)n2)ccn1; -35.6

Inquiry: inhibition of Ic1ccccc1-c1nsc(-c2ccccc2I)n1 on Radical scavenging activity?
Reply text: 3.4

Inquiry: inhibition of Brc1cccc(-c2nsc(-c3cccc(Br)c3)n2)c1 on Radical scavenging activity?
Reply text: 1

###

Test system: RAW264.7
protocol-text: Antiinflammatory activity in mouse RAW264.7 cells assessed as inhibition of LPS-induced NO production at 40 uM preincubated for 30 mins before LPS challenge by Griess method
property-measured: inhibition at 40 µM (%)
Express your answer in %, writing the number without its unit.

c1cc(-c2nsc(-c3ccncc3)n2)ccn1; 0.9
COc1cccc(-c2nsc(-c3cccc(OC)c3)n2)c1; 17.6
Brc1ccc(-c2nsc(-c3ccc(Br)cc3)n2)cc1; 17.1

Inquiry: Would you kindly share the measured inhibition at 40 µM for Oc1ccc(CCc2cc(O)cc(O)c2)cc1 [DIHYDRORESVERATROL] ?
Reply text: 36.2

Inquiry: Would you kindly share the measured inhibition at 40 µM for Brc1ccccc1-c1nsc(-c2ccccc2Br)n1 ?
Reply text: 9.1

Inquiry: Would you kindly share the measured inhibition at 40 µM for Cc1ccc(Cl)cc1-c1nsc(-c2cc(Cl)ccc2C)n1 ?
Reply text: 25.9

Inquiry: Would you kindly share the measured inhibition at 40 µM for Fc1cccc(-c2nsc(-c3cccc(F)c3)n2)c1 ?
Reply text: 3.2
